# Assayed Target: CDK1/cyclinB (Homo sapiens, UniProt P06493)
# Construct: purchased Millipore
# Sequence (P06493 whole entry): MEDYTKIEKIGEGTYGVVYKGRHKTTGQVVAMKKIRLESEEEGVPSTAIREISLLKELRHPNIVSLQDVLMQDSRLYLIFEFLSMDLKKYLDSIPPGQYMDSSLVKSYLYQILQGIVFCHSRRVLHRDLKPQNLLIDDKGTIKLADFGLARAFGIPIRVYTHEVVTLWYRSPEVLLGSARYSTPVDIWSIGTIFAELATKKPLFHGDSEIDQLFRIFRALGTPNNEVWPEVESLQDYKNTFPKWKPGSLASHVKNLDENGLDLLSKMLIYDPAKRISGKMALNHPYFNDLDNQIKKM
# Sequence (P14635 whole entry partner): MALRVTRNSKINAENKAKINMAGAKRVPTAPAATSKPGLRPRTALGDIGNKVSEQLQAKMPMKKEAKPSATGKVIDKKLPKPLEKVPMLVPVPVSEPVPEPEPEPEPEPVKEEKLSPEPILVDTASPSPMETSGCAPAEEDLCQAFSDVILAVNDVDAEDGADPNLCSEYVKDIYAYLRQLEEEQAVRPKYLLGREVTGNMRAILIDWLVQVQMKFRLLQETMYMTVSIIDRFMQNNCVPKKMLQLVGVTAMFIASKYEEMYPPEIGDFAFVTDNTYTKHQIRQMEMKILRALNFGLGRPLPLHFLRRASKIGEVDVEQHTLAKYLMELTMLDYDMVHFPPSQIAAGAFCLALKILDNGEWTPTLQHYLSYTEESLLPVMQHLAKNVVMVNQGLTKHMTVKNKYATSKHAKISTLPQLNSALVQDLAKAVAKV
# Test Description: CDK1/cyclinB kinase assay, IMAP fluorescence polarization
# Type: biochemical
# Condition Summary: read-out: CDK1 IC50
pIC50: −log10 of the molar value.
Entries and their pIC50

CC(=O)NCCCNc1ncccc1-c1nc(Nc2cccc(Cl)c2)ncc1C ... < 4.30
N#Cc1cccc(Nc2nccc(-c3cccnc3NCCCN)n2)c1 ... > 5.30
COc1ncccc1-c1ccnc(NC2CCCCC2)n1 ... 4.30 to 4.82
CC(=O)NCCCNc1ncccc1-c1ccnc(Nc2cccc(S(N)(=O)=O)c2)n1 ... > 5.30
Clc1cccc(Nc2nccc(-c3cccnc3NCCCn3ccnc3)n2)c1 ... > 5.30
COc1ncccc1-c1ccnc(Nc2ccc(N3CCN(C)CC3)cc2)n1 ... 4.82 to 5.30
COc1ncccc1-c1ccnc(Nc2cccc(S(N)(=O)=O)c2)n1 ... > 5.30
CC(=O)NCCCNc1ncccc1-c1ccnc(Nc2cccc(S(C)(=O)=O)c2)n1 ... < 4.30

CDK1/cyclinB (Homo sapiens, UniProt P06493) data for "Cc1c(-c2ccnc(Nc3cccc(Cl)c3)n2)ccnc1NCCCNc1ccc(CN)cc1" ; its pIC50: 4.82 to 5.30

For the molecule "COc1ncccc1-c1ccnc(Nc2cccc(C(=O)OC(C)(C)C)c2)n1" , the measured pIC50 on CDK1/cyclinB (Homo sapiens, UniProt P06493) was < 4.30

Tested on CDK1/cyclinB (Homo sapiens, UniProt P06493): "COc1ncccc1-c1ccnc(Nc2ccc([N+](=O)[O-])cc2)n1" . Observed pIC50: < 4.30

Form field pIC50 for item "CNS(=O)(=O)c1cccc(Nc2nccc(-c3cccnc3OC)n2)c1" on CDK1/cyclinB (Homo sapiens, UniProt P06493): > 5.30

Record for "COc1ncccc1-c1ccnc(Nc2cccc(S(=O)(=O)NC3CCCCC3)c2)n1" under target or system CDK1/cyclinB (Homo sapiens, UniProt P06493): pIC50 reported as < 4.30

Tested system CDK1/cyclinB (Homo sapiens, UniProt P06493); pIC50 recorded for "Cc1c(-c2ccnc(Nc3cccc(Cl)c3)n2)ccnc1NCc1ccccc1" was > 5.30

Query "Clc1cccc(Nc2nccc(-c3cccnc3NCC3CCCCC3)n2)c1" on CDK1/cyclinB (Homo sapiens, UniProt P06493); pIC50 returned: < 4.30

The value of pIC50 recorded for "NCCCNc1cc2c(cn1)CCc1cnc(Nc3cccc(Cl)c3)nc1-2" when tested on CDK1/cyclinB (Homo sapiens, UniProt P06493) reads > 5.30

====

# Assayed Target: CDK2/cyclinA (Homo sapiens, UniProt P24941)
# Test Description: CDK2/cyclinA kinase assay, IMAP fluorescence polarization
pIC50: −log10 of the molar value.
Listed here are molecules together with their documented pIC50.

Solved cases below.
COc1ncccc1-c1ccnc(Nc2cccc(N3CCCC3)c2)n1 ... 4.30 to 4.82
CN(C)CCCNc1ncccc1-c1ccnc(Nc2cccc(Cl)c2)n1 ... > 5.30
COc1ncccc1-c1ccnc(Nc2cccc(NC(C)=O)c2)n1 ... > 5.30
Cc1c(-c2ccnc(Nc3cccc(Cl)c3)n2)ccnc1NCCCn1ccnc1 ... > 5.30

"COc1ncccc1-c1ccnc(Nc2cccc(-c3nncn3C)c2)n1" on CDK2/cyclinA (Homo sapiens, UniProt P24941) gives pIC50 = > 5.30

The molecule "Cc1c(-c2ccnc(Nc3cccc(Cl)c3)n2)ccnc1NCCCN1CCCC1=O" , tested on CDK2/cyclinA (Homo sapiens, UniProt P24941), showed pIC50 of > 5.30

====

Quick list: IC50 per entry.
# Assayed Target: CDK2/cyclinA (Homo sapiens, UniProt P24941)
# Construct: purchased Millipore
# Test Description: CDK2/cyclinA kinase assay, IMAP fluorescence polarization
# Assay type: biochemical

Reference set (4 entries):
Cc1cnc(Nc2cccc(Cl)c2)nc1-c1cccnc1NCCCN ... < 5 µM
COc1ncccc1-c1ccnc(Nc2cccc(S(=O)(=O)NCCO)c2)n1 ... < 5 µM
Clc1cccc(Nc2nccc(-c3cccnc3NCCc3c[nH]cn3)n2)c1 ... < 5 µM
CC(=O)NCCCNc1ncccc1-c1nc(Nc2cccc(Cl)c2)ncc1C ... 15 to 50 µM

Shift focus to the following entry.
For this molecule ( "CC(C)(C)CC(=O)NCCCNc1ncccc1-c1ccnc(Nc2cccc(Cl)c2)n1" ), measured IC50 is > 50 µM

====

# Assayed Target: CDK1/cyclinB (Homo sapiens, UniProt P06493)
# Construct: purchased Millipore
# Test Description: CDK1/cyclinB kinase assay, IMAP fluorescence polarization
# Type: biochemical
# Condition Summary: read-out: CDK1 IC50
Quantity Kind: IC50

NCCNc1ncccc1-c1ccnc(Nc2cccc(Cl)c2)n1 ... < 5 µM
OCCCNc1ncccc1-c1ccnc(Nc2cccc(Cl)c2)n1 ... < 5 µM
CC(=O)NCCCNc1cc2c(cn1)CCc1cnc(Nc3cccc(Cl)c3)nc1-2 ... < 5 µM
CS(=O)(=O)NCCCNc1ncccc1-c1ccnc(Nc2cccc(Cl)c2)n1 ... < 5 µM
CNCCCNc1ncccc1-c1ccnc(Nc2cccc(Cl)c2)n1 ... 5 to 15 µM

So, "CC(=O)NCCCNc1nccc(-c2ccnc(Nc3cccc(Cl)c3)n2)c1C" ? Its IC50 was 5 to 15 µM

Notebook: "CC(=O)NCCCNc1ncccc1-c1ccnc(Nc2cccc(Cl)c2)n1" , IC50 read as < 5 µM

Entry "CC(C)(CN)CNc1ncccc1-c1ccnc(Nc2cccc(Cl)c2)n1" — recorded IC50 = < 5 µM

# compound "CC(=O)OCCCNc1ncccc1-c1ccnc(Nc2cccc(Cl)c2)n1" ; its IC50 = 5 to 15 µM

Consider "COc1ncccc1-c1ccnc(Nc2cccc([N+](=O)[O-])c2)n1" . Its measured IC50 is > 50 µM

Given item "COc1ncccc1-c1ccnc(Nc2cccc(C(=O)O)c2)n1" , the value recorded as its IC50 is 15 to 50 µM

# compound "COc1ncccc1-c1ccnc(Nc2cccnc2)n1" ; its IC50 = > 50 µM

Consider "COc1ncccc1-c1ccnc(Nc2cccc(C(=O)NCCN(C)C)c2)n1" . Its measured IC50 is 5 to 15 µM

Measured IC50, "Cc1c(-c2ccnc(Nc3cccc(Cl)c3)n2)ccnc1NCCCN" : < 5 µM

====

# Assayed Target: CDK2/cyclinA (Homo sapiens)
# Construct: purchased Millipore
# Test Description: CDK2/cyclinA kinase assay, IMAP fluorescence polarization
# Assay type: biochemical
pIC50: −log10 of the molar value.
Parameter: pIC50. Scope: all listed entries.

COc1ncccc1-c1ccnc(Nc2cccnc2)n1 ... < 4.30

Pending compound:
Sure, the documented pIC50 for "COc1ncccc1-c1ccnc(Nc2cccc(S(=O)(=O)N3CCCCC3)c2)n1" is > 5.30

====

pIC50 values by entry
# Assayed Target: CDK2/cyclinA (Homo sapiens, UniProt P24941)
# Test Description: CDK2/cyclinA kinase assay, IMAP fluorescence polarization
pIC50: −log10 of the molar value.

COc1ncccc1-c1ccnc(Nc2cccc(C3CCNCC3)c2)n1 ... > 5.30
COc1cnccc1-c1nc(Nc2cccc(S(N)(=O)=O)c2)ncc1C ... > 5.30
CCN(CC)S(=O)(=O)c1cccc(Nc2nccc(-c3cccnc3OC)n2)c1 ... < 4.30
CC(=O)NCCCNc1nccc(-c2ccnc(Nc3cccc(Cl)c3)n2)c1C ... > 5.30
CC(=O)NCC(C)(C)CNc1ncccc1-c1ccnc(Nc2cccc(Cl)c2)n1 ... > 5.30

Given item "Cc1c(-c2ccnc(Nc3cccc(Cl)c3)n2)ccnc1NCc1ccccc1" , the value recorded as its pIC50 is > 5.30
